Target: Tyrosinase (Agaricus bisporus)
Assay: Induction of mushroom tyrosinase activity using L-DOPA as substrate at 200 uM after 30 mins
valueKind: Activity

Please review the entries below; each comes with its answer.
[
  {
    "compoundString": "O=c1c(O[C@@H]2O[C@H](CO)[C@@H](O[C@@H]3O[C@H](CO)[C@@H](O)[C@H](O)[C@H]3O)[C@H](O)[C@H]2O)c(-c2ccc(O[C@@H]3O[C@H](CO)[C@@H](O)[C@H](O)[C@H]3O)c(O)c2)oc2cc(O)cc(O)c12",
    "systemTested": "Tyrosinase (Agaricus bisporus)",
    "Activity": "101%"
  },
  {
    "compoundString": "O=c1c(O[C@@H]2O[C@H](CO)[C@@H](O)[C@H](O)[C@H]2O)c(-c2ccc(O[C@@H]3O[C@H](CO)[C@@H](O[C@@H]4O[C@H](CO)[C@@H](O)[C@H](O)[C@H]4O)[C@H](O)[C@H]3O)c(O)c2)oc2cc(O)cc(O)c12",
    "systemTested": "Tyrosinase (Agaricus bisporus)",
    "Activity": "109%"
  }
]

For the compound O=c1c(O[C@@H]2O[C@H](CO)[C@@H](O[C@@H]3O[C@H](CO)[C@@H](O)[C@H](O)[C@H]3O)[C@H](O)[C@H]2O)c(-c2ccc(O[C@@H]3O[C@H](CO)[C@@H](O[C@@H]4O[C@H](CO)[C@@H](O)[C@H](O)[C@H]4O)[C@H](O)[C@H]3O)c(O)c2)oc2cc(O)cc(O)c12 , give its measured Activity value.
108%

For the compound O=c1c(O[C@@H]2O[C@H](CO)[C@@H](O[C@@H]3O[C@H](CO)[C@@H](O)[C@H](O)[C@H]3O)[C@H](O)[C@H]2O)c(-c2ccc(O)c(O)c2)oc2cc(O[C@@H]3O[C@H](CO)[C@@H](O)[C@H](O)[C@H]3O)cc(O)c12 , give its measured Activity value.
104%

----------
Biological target: Tyrosinase (Agaricus bisporus)
Sequence (whole entry): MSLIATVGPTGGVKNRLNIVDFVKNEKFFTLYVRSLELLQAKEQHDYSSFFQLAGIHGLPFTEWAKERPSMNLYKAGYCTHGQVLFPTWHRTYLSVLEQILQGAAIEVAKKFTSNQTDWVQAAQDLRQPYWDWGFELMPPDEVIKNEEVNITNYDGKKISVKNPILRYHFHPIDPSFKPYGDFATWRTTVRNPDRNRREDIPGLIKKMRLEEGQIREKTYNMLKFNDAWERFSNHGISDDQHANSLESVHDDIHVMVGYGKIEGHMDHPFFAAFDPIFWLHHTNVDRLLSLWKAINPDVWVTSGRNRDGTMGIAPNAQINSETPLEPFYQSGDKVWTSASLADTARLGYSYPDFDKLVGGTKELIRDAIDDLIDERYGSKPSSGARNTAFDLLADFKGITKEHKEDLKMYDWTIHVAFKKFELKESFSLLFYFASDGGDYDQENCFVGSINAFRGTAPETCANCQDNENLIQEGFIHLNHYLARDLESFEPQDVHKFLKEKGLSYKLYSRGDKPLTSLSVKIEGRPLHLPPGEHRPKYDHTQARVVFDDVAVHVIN
Test: Induction of mushroom tyrosinase activity using L-DOPA as substrate at 50 uM after 30 mins
valueKind: Activity (%)
Please state the figure in %; there is no need to write the unit.

Please review the entries below; each comes with its answer.
[
  {
    "compoundString": "O=c1c(O[C@@H]2O[C@H](CO)[C@@H](O)[C@H](O)[C@H]2O)c(-c2ccc(O)c(O)c2)oc2cc(O[C@@H]3O[C@H](CO)[C@@H](O)[C@H](O)[C@H]3O)cc(O)c12",
    "Activity (%)": 103
  },
  {
    "compoundString": "O=c1c(O[C@@H]2O[C@H](CO)[C@@H](O[C@@H]3O[C@H](CO)[C@@H](O)[C@H](O)[C@H]3O)[C@H](O)[C@H]2O)c(-c2ccc(O[C@@H]3O[C@H](CO)[C@@H](O[C@@H]4O[C@H](CO)[C@@H](O)[C@H](O)[C@H]4O)[C@H](O)[C@H]3O)c(O)c2)oc2cc(O)cc(O)c12",
    "Activity (%)": 107
  },
  {
    "compoundString": "O=c1c(O[C@@H]2O[C@H](CO)[C@@H](O)[C@H](O)[C@H]2O)c(-c2ccc(O)c(O)c2)oc2cc(O[C@@H]3O[C@H](CO)[C@@H](O[C@@H]4O[C@H](CO)[C@@H](O)[C@H](O)[C@H]4O)[C@H](O)[C@H]3O)cc(O)c12",
    "Activity (%)": 108
  },
  {
    "compoundString": "O=c1c(O[C@@H]2O[C@H](CO)[C@@H](O)[C@H](O)[C@H]2O)c(-c2ccc(O[C@@H]3O[C@H](CO)[C@@H](O)[C@H](O)[C@H]3O)c(O)c2)oc2cc(O)cc(O)c12",
    "Activity (%)": 102
  },
  {
    "compoundString": "O=c1c(O[C@@H]2O[C@H](CO)[C@@H](O[C@@H]3O[C@H](CO)[C@@H](O)[C@H](O)[C@H]3O)[C@H](O)[C@H]2O)c(-c2ccc(O)c(O)c2)oc2cc(O)cc(O)c12",
    "Activity (%)": 103
  }
]

For the compound O=c1c(O[C@@H]2O[C@H](CO)[C@@H](O[C@@H]3O[C@H](CO)[C@@H](O)[C@H](O)[C@H]3O)[C@H](O)[C@H]2O)c(-c2ccc(O)c(O)c2)oc2cc(O[C@@H]3O[C@H](CO)[C@@H](O[C@@H]4O[C@H](CO)[C@@H](O)[C@H](O)[C@H]4O)[C@H](O)[C@H]3O)cc(O)c12 , give its measured Activity value.
101

For the compound O=c1c(O[C@@H]2O[C@H](CO)[C@@H](O)[C@H](O)[C@H]2O)c(-c2ccc(O[C@@H]3O[C@H](CO)[C@@H](O[C@@H]4O[C@H](CO)[C@@H](O)[C@H](O)[C@H]4O)[C@H](O)[C@H]3O)c(O)c2)oc2cc(O)cc(O)c12 , give its measured Activity value.
103

For the compound O=c1c(O[C@@H]2O[C@H](CO)[C@@H](O)[C@H](O)[C@H]2O)c(-c2ccc(O)c(O)c2)oc2cc(O)cc(O)c12 , give its measured Activity value.
107

----------
Assay: Cytotoxicity against mouse B16F10 cells assessed as cell viability at 125 uM by MTT assay
Type: cell-based, B16-F10
Details: read-out: Activity
valueKind: viability at 125 µM (%)
Please state the figure in %; there is no need to write the unit.

For the molecule Cn1c(=O)c2nc[nH]c2n(C)c1=O.O , give its measured viability at 125 µM value.
95.5

----------
Target: Tyrosinase (Agaricus bisporus)
Experiment: Induction of mushroom tyrosinase activity using L-DOPA as substrate at 100 uM after 30 mins
valueKind: Activity

Please review the entries below; each comes with its answer.
[
  {
    "compoundString": "O=c1c(O[C@@H]2O[C@H](CO)[C@@H](O)[C@H](O)[C@H]2O)c(-c2ccc(O[C@@H]3O[C@H](CO)[C@@H](O)[C@H](O)[C@H]3O)c(O)c2)oc2cc(O)cc(O)c12",
    "Activity": "99.3%"
  },
  {
    "compoundString": "O=c1c(O[C@@H]2O[C@H](CO)[C@@H](O[C@@H]3O[C@H](CO)[C@@H](O)[C@H](O)[C@H]3O)[C@H](O)[C@H]2O)c(-c2ccc(O[C@@H]3O[C@H](CO)[C@@H](O)[C@H](O)[C@H]3O)c(O)c2)oc2cc(O)cc(O)c12",
    "Activity": "103%"
  },
  {
    "compoundString": "O=c1c(O[C@@H]2O[C@H](CO)[C@@H](O)[C@H](O)[C@H]2O)c(-c2ccc(O[C@@H]3O[C@H](CO)[C@@H](O[C@@H]4O[C@H](CO)[C@@H](O)[C@H](O)[C@H]4O)[C@H](O)[C@H]3O)c(O)c2)oc2cc(O)cc(O)c12",
    "Activity": "105%"
  }
]

For the compound O=c1c(O[C@@H]2O[C@H](CO)[C@@H](O[C@@H]3O[C@H](CO)[C@@H](O)[C@H](O)[C@H]3O)[C@H](O)[C@H]2O)c(-c2ccc(O)c(O)c2)oc2cc(O[C@@H]3O[C@H](CO)[C@@H](O)[C@H](O)[C@H]3O)cc(O)c12 , give its measured Activity value.
104%

For the compound O=c1c(O[C@@H]2O[C@H](CO)[C@@H](O[C@@H]3O[C@H](CO)[C@@H](O)[C@H](O)[C@H]3O)[C@H](O)[C@H]2O)c(-c2ccc(O)c(O)c2)oc2cc(O[C@@H]3O[C@H](CO)[C@@H](O[C@@H]4O[C@H](CO)[C@@H](O)[C@H](O)[C@H]4O)[C@H](O)[C@H]3O)cc(O)c12 , give its measured Activity value.
102%
